# STUDY_SYSTEM: human recombinant BACE1 (Homo sapiens (Human), UniProt P56817)
# Sequence (P56817 46-501): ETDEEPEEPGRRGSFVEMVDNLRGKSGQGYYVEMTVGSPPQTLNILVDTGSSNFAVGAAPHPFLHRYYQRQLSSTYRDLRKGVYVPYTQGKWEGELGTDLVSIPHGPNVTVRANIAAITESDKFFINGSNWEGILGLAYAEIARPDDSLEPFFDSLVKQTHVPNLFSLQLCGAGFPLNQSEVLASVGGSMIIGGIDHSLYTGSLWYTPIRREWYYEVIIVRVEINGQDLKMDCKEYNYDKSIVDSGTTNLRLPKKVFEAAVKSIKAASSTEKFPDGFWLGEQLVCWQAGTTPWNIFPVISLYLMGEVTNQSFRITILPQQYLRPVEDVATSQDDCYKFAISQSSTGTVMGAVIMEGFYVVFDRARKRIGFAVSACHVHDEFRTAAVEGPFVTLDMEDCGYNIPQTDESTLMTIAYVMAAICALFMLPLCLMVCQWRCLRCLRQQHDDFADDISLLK
# ASSAY_EXPLANATION: In vitro enzymatic BACE1 FRET assay
# Format: biochemical
# RECORDED_CONDITIONS: read-out: IC50 IP (μM) BACE1 enzyme
MEASUREMENT_LABEL: IC50 (µM)

molecule="C#CCOc1cnc2c(Nc3cc(F)c(F)c([C@@]4(C)N=C(N)S[C@@]5(C(N)=O)C[C@H]54)c3)ncnc2c1 [Example 917]" experimental_value=0.000633

1. COc1ncc(NC(=O)c2ccc(Cl)cn2)cc1[C@@]1(C)N=C(N)S[C@@]2(CF)C[C@H]21 [Example 624]
2. C#CCOc1cnc2c(Nc3ccc(F)c([C@@]4(C)N=C(N)S[C@@]5([C@@H](O)C(F)(F)F)C[C@H]54)c3)nccc2n1 [Example 672]
Task: Select the item with the higher value of IC50 from the options 1 and 2 listed. Let me know the label of the one you choose.
Result: 1

a. C[C@]1(c2cc(NC(=O)c3ccc(Cl)cn3)ccc2F)N=C(N)S[C@@]2(CF)C[C@H]21 [Example 821]
b. Cc1nc(COc2cnc3c(Nc4cc(F)c(F)c([C@@]5(C)N=C(N)S[C@@]6(C(F)F)C[C@@H]56)c4)nccc3n2)no1 [Example 883]
Task: Given the two records a and b , choose the one whose IC50 value is lower. Record your answer as the label of the chosen record.
Result: b

a. C#CCOc1cnc(C(=O)Nc2cnc(F)c([C@@]3(C)N=C(N)S[C@@]4(CF)C[C@H]43)c2)c(C)n1 [Example 603]
b. Cc1cc(OCC(F)(F)F)cnc1C(=O)Nc1cc(F)c(F)c([C@@]2(C)N=C(N)S[C@@]3(C#N)C[C@H]32)c1 [Example 1015]
Task: Please indicate which item has the smaller measured IC50: a versus b API: response body contains the label of the selected item.
Result: a
(a: 0.0016 µM, b: 0.00497 µM)

* * *

# STUDY_SYSTEM: human recombinant BACE2 (Homo sapiens (Human))
# Sequence (Q9Y5Z0 63-518): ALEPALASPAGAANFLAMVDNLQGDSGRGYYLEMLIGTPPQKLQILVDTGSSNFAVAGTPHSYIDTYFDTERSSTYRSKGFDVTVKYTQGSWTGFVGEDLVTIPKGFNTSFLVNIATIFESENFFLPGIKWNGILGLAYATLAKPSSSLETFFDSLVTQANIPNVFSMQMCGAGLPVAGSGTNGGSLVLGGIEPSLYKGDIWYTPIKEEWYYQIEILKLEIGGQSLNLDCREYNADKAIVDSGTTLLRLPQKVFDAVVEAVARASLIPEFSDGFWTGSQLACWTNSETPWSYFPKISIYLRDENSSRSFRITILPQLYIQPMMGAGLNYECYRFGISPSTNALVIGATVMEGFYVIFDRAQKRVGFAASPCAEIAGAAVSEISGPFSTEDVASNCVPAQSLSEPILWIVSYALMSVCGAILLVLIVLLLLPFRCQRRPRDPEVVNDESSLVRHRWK
# ASSAY_EXPLANATION: In vitro enzymatic BACE2 FRET assay
# Type: biochemical
# RECORDED_CONDITIONS: read-out: IC50 IP (μM) BACE2 enzyme
MEASUREMENT_LABEL: IC50 (µM)

For orientation, consider the following solved cases.
record_smiles=C#CCOc1cnc(C(=O)Nc2cc(F)c(F)c([C@@]3(C)N=C(N)S[C@@]4(CN)C[C@H]43)c2)cn1 study_system="human recombinant BACE2 (Homo sapiens (Human))" experimental_value=0.0575
record_smiles=Cc1cnc(COc2cnc3c(Nc4cc(F)c(F)c([C@@]5(C)N=C(N)S[C@@]6(C(F)F)C[C@@H]56)c4)nccc3n2)o1 study_system="human recombinant BACE2 (Homo sapiens (Human))" experimental_value=0.0581
record_smiles=C#C[C@H](C)Oc1cnc2c(Nc3cc(F)c(F)c([C@@]4(C)N=C(N)S[C@@]5(C#N)C[C@H]54)c3)nccc2n1 study_system="human recombinant BACE2 (Homo sapiens (Human))" experimental_value=0.0551

I. C#CCOc1cnc2c(Nc3ccc(F)c([C@@]4(C)N=C(N)S[C@@]5(C(=O)NC6CC6)C[C@H]54)c3)ncnc2c1
II. COCCOc1cnc2c(Nc3ccc(F)c([C@@]4(CF)N=C(N)S[C@@]5(CF)C[C@H]54)c3)nccc2n1
III. C#CCOc1cnc2c(Nc3cc(F)c(F)c([C@@]4(C)N=C(N)S[C@@]5(S(C)(=O)=O)C[C@H]54)c3)nccc2n1
Task: Ordering criterion: IC50; begin with the maximum. Please respond with the labels ordered as the question requires.
Result: II, I, III
(II: 0.192 µM, I: 0.0712 µM, III: 0.00547 µM)

* * *

# STUDY_SYSTEM: human recombinant BACE1 (Homo sapiens (Human), UniProt P56817)
# ASSAY_EXPLANATION: In vitro enzymatic BACE1 FRET assay
# Type: biochemical
# RECORDED_CONDITIONS: BACE1 FRET enzyme assay; read-out: IC50 IP (μM) BACE1 enzyme
MEASUREMENT_LABEL: IC50 (µM)

compound="NC1=N[C@](CF)(c2cc(NC(=O)c3ccc(Cl)cn3)ccc2F)[C@@H]2C[C@@H]2S1 [Example 1]" experimental_value=0.00551

I. COc1cnc2c(Nc3cc(F)c(F)c([C@@]4(CF)N=C(N)S[C@H]5C[C@H]54)c3)nccc2n1 [Example 62]
II. Cc1cc(OC(F)F)cnc1C(=O)Nc1cc(F)c(F)c([C@@]2(C)N=C(N)S[C@H]3C[C@H]32)c1 [Example 15]
III. C#CCOc1cnc(C(=O)Nc2cc(F)c(F)c([C@@]3(CF)N=C(N)S[C@H]4C[C@H]43)c2)c(C)n1 [Example 84]
Task: Please order the records by their reported IC50, lowest number first. As an answer, provide the labels arranged in the order called for.
Result: III, II, I
(III: 0.00125 µM, II: 0.0124 µM, I: 0.0289 µM)

* * *

# STUDY_SYSTEM: human recombinant BACE1 (Homo sapiens (Human))
# ASSAY_EXPLANATION: In vitro enzymatic BACE1 FRET assay
# Format: biochemical
# RECORDED_CONDITIONS: BACE1 FRET enzyme assay; read-out: IC50 IP (μM) BACE1 enzyme
MEASUREMENT_LABEL: IC50 (µM)

a. C[C@]1(c2cc(NC(=O)c3ccc(Cl)cn3)cnc2F)N=C(N)S[C@@]2(CF)C[C@H]21 [Example 98]
b. NC1=N[C@](CF)(c2cc(NC(=O)c3ccc(Cl)cn3)cc(F)c2F)[C@@H]2C[C@]2(CF)S1 [Example 59]
Task: Compare a and b and name the one whose reported IC50 is smaller. Kindly state the label of the option you pick.
Result: b
(b: 0.00114 µM, a: 0.00665 µM)

I. C#CCOc1cnc(C(=O)Nc2ccc(F)c([C@@]3(CF)N=C(N)S[C@@]4(CO)C[C@H]43)c2)cn1 [Example 53]
II. COc1cnc(C(=O)Nc2ccc(F)c([C@@]3(CF)N=C(N)S[C@H]4C[C@H]43)c2)cn1 [Example 4]
III. N#Cc1cnc2c(Nc3ccc(F)c([C@@]4(CF)N=C(N)S[C@H]5CC54)c3)nccc2c1 (stereo in doubt) [Example 38]
Task: Please give the order of these compounds when sorted by IC50, largest value leading. Please list each label once, in the requested order.
Result: II, III, I

* * *

# STUDY_SYSTEM: human recombinant BACE2 (Homo sapiens (Human))
# ASSAY_EXPLANATION: In vitro enzymatic BACE2 FRET assay
# Format: biochemical
# RECORDED_CONDITIONS: read-out: IC50 IP (μM) BACE2 enzyme
MEASUREMENT_LABEL: IC50 (µM)

A. C#CCOc1cnc2c(Nc3ccc(F)c([C@@]4(CF)N=C(N)S[C@H]5C[C@H]54)c3)ncnc2c1
B. C#C[C@H](C)Oc1cnc(C(=O)Nc2ccc(F)c([C@@]3(C)N=C(N)S[C@@]4(C(=O)NC(C)(C)C)C[C@H]43)c2)cn1
Task: Kindly identify the item with the lower IC50 figure among these two: A and B Provide the label of your selected option as the answer.
Result: B

I. COC[C@]12C[C@H]1[C@@](C)(c1cc(NC(=O)c3ccc(Cl)cn3)cc(C)c1F)N=C(N)S2
II. C[C@]1(c2cc(Nc3nccc4cc(OCc5ncco5)cnc34)cnc2F)N=C(N)S[C@]2(CO)[C@H]1C2(F)F
Task: Dear colleague, could you let me know whether I or II has the lower recorded IC50? Thanks. Respond using the label that marks the chosen record.
Result: I
(I: 0.00099 µM, II: 0.036 µM)

1. CC(C)(CF)NC(=O)[C@]12C[C@H]1[C@@](C)(c1cc(NC(=O)c3cnc(OCC(F)(F)F)cn3)ccc1F)N=C(N)S2
2. Cc1nc(OCc2ncco2)cnc1C(=O)Nc1ccc(F)c([C@@]2(C)N=C(N)S[C@@]3(C(F)F)C[C@@H]23)c1
Task: Between 1 and 2 , whose measured IC50 reads higher? Respond with the label that goes with your answer.
Result: 1

P. C[C@]1(c2cc(Nc3ncnc4cc(C#N)cnc34)cc(F)c2F)N=C(N)S[C@@]2(CF)C[C@H]21
Q. Cc1cc(OCC(F)(F)F)cnc1C(=O)Nc1cc(F)c(F)c([C@@]2(C)N=C(N)S[C@@]3(C#N)C[C@H]32)c1
R. C[C@]1(c2cc(NC(=O)c3cnc(OCC(F)(F)F)cn3)ccc2F)N=C(N)S[C@@]2(C(=O)N3CCCC3)C[C@H]21
Task: Sort entries by IC50 from minimum to maximum value. Answer by naming the labels in the order asked.
Result: R, P, Q
(R: 0.00951 µM, P: 0.0163 µM, Q: 0.185 µM)

P. C#CCOc1cnc2c(Nc3ccc(F)c([C@@]4(C)N=C(N)S[C@@]5(C(=O)NC)C[C@H]54)c3)nccc2n1
Q. NC1=N[C@](CF)(c2cc(Nc3ncnc4cc(OCc5ncco5)cnc34)ccc2F)[C@@H]2C[C@@H]2S1
R. C#CCOc1cnc2c(Nc3cc(F)c(F)c([C@@]4(C)N=C(N)S[C@@]5(C(F)F)C[C@@H]45)c3)ncnc2c1
Task: Please give the order of these compounds when sorted by IC50, largest value leading. Write the labels out in the order the request specifies.
Result: Q, R, P
(Q: 0.239 µM, R: 0.0661 µM, P: 0.0201 µM)
